Cited source: paper PMC6528680

- Format: in vivo, mice (C57BL/6J, C3H/HeJ, mps/mps)
- TEST SETTINGS: male, mps/mps, mouse, serum, ip, 100 mg/kg

# COMPOUND, concentration at 20 min / µM
rows = [
    ("COc1cc(/C=C/C(=O)CC(=O)/C=C/c2ccc(O[C@@H]3O[C@H](C(=O)O)[C@@H](O)[C@H](O)[C@H]3O)c(OC)c2)ccc1O [curcumin-glucuronide]", 151),
]

---

- Format: in vivo, mice (C57BL/6J, C3H/HeJ, mps/mps)
- TEST SETTINGS: female, C3H/HeJ, mouse, serum, ip, 100 mg/kg
PROPERTY MEASURED: concentration at 20 min (µM)

# COMPOUND, UNITS TEXT, NUMERIC READOUT
rows = [
    ("COc1cc(/C=C/C(=O)CC(=O)/C=C/c2ccc(O[C@@H]3O[C@H](C(=O)O)[C@@H](O)[C@H](O)[C@H]3O)c(OC)c2)ccc1O [curcumin-glucuronide]", "µM", 92.1),
]
